Quick list: inhibition of APC/thrombin per entry.
experimental_system: T1, activated Protein C (APC) (human, UniProt P04070 43-197; P04070 212-461)
T1 construct: also called human plasma APC
T1 sequence (P04070 43-197, chain 1 of 2): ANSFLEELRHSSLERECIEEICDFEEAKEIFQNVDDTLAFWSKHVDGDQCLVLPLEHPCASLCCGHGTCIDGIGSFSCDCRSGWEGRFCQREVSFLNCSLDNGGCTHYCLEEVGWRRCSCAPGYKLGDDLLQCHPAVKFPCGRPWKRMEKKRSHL
T1 sequence (P04070 212-461, chain 2 of 2): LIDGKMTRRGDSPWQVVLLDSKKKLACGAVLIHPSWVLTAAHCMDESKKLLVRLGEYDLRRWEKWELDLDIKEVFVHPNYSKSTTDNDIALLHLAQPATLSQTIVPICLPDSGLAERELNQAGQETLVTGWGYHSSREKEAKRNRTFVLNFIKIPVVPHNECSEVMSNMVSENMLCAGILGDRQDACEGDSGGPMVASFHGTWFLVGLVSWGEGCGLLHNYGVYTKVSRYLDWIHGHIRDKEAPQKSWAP
protocol_text: ratio of rate constants, APC over thrombin
Give the value; after it, write the unit.

>>> data_value("FL α1AT Pitts C232S P2QP1′K (other, E. coli, purified; also called 4.G4) SDPQGDAAQKTDTSHHDQDHPTFNKITPNLAEFAFSLYRQLAHQSNSTNIFFSPVSIATAFAMLSLGTKADTHDEILEGLNFNLTEIPEAQIHEGFQELLRTLNQPDSQLQLTTGNGLFLSEGLKLVDKFLEDVKKLYHSEAFTVNFGDTEEAKKQINDYVEKGTQGKIVDLVKELDRDTVFALVNYIFFKGKWERPFEVKDTEEEDFHVDQVTTVKVPMMKRLGMFNIQHSKKLSSWVLLMKYLGNATAIFFLPDEGKLQHLENELTHDIITKFLENEDRRSASLHLPKLSITGTYDLKSVLGQLGITKVFSNGADLSGVTEEAPLKLSKAVHKAVLTIDEKGTEAAGAMFLEAIQRKIPPEVKFNKPFVFLMIEQNTKSPLFMGKVVNPTQK")
"8790 fold"
>>> data_value("FL α1AT Pitts C232S P2RP1′C (other, E. coli, purified; also called 1.B11) SDPQGDAAQKTDTSHHDQDHPTFNKITPNLAEFAFSLYRQLAHQSNSTNIFFSPVSIATAFAMLSLGTKADTHDEILEGLNFNLTEIPEAQIHEGFQELLRTLNQPDSQLQLTTGNGLFLSEGLKLVDKFLEDVKKLYHSEAFTVNFGDTEEAKKQINDYVEKGTQGKIVDLVKELDRDTVFALVNYIFFKGKWERPFEVKDTEEEDFHVDQVTTVKVPMMKRLGMFNIQHSKKLSSWVLLMKYLGNATAIFFLPDEGKLQHLENELTHDIITKFLENEDRRSASLHLPKLSITGTYDLKSVLGQLGITKVFSNGADLSGVTEEAPLKLSKAVHKAVLTIDEKGTEAAGAMFLEAIRRCIPPEVKFNKPFVFLMIEQNTKSPLFMGKVVNPTQK")
"722 fold"
>>> data_value("FL α1AT Pitts C232S P2R (other, E. coli, purified; also called P2.F10; P2.G8) SDPQGDAAQKTDTSHHDQDHPTFNKITPNLAEFAFSLYRQLAHQSNSTNIFFSPVSIATAFAMLSLGTKADTHDEILEGLNFNLTEIPEAQIHEGFQELLRTLNQPDSQLQLTTGNGLFLSEGLKLVDKFLEDVKKLYHSEAFTVNFGDTEEAKKQINDYVEKGTQGKIVDLVKELDRDTVFALVNYIFFKGKWERPFEVKDTEEEDFHVDQVTTVKVPMMKRLGMFNIQHSKKLSSWVLLMKYLGNATAIFFLPDEGKLQHLENELTHDIITKFLENEDRRSASLHLPKLSITGTYDLKSVLGQLGITKVFSNGADLSGVTEEAPLKLSKAVHKAVLTIDEKGTEAAGAMFLEAIRRSIPPEVKFNKPFVFLMIEQNTKSPLFMGKVVNPTQK")
"1460 fold"

As a next step, examine the binder that follows.
The reported inhibition of APC/thrombin of the binder FL α1AT Pitts C232S P2KP1′N (other, E. coli, purified; also called 3.B2; 2.H5) SDPQGDAAQKTDTSHHDQDHPTFNKITPNLAEFAFSLYRQLAHQSNSTNIFFSPVSIATAFAMLSLGTKADTHDEILEGLNFNLTEIPEAQIHEGFQELLRTLNQPDSQLQLTTGNGLFLSEGLKLVDKFLEDVKKLYHSEAFTVNFGDTEEAKKQINDYVEKGTQGKIVDLVKELDRDTVFALVNYIFFKGKWERPFEVKDTEEEDFHVDQVTTVKVPMMKRLGMFNIQHSKKLSSWVLLMKYLGNATAIFFLPDEGKLQHLENELTHDIITKFLENEDRRSASLHLPKLSITGTYDLKSVLGQLGITKVFSNGADLSGVTEEAPLKLSKAVHKAVLTIDEKGTEAAGAMFLEAIKRNIPPEVKFNKPFVFLMIEQNTKSPLFMGKVVNPTQK was 2520 fold

Just for reference, patent US20160311887A1 is where these values come from.
